Test: NCI Yeast Anticancer Drug Screen. Data for the mlh1 rad18 strain (AID 175)
Conditions: S. cerevisiae mlh1 rad18 strain growth inhibition; at 50.0 µM; stronger effect = higher value
Compounds without any hit were thinned out: in the full panel of roughly 79,000, 15% have a hit.
Assign satisfied whenever growth inhibition does not fall below 90%; assign not satisfied whenever it does.

Some entries whose results are on file:
{"Compound": "CN(C)C1=C(Cl)C(=O)c2ccccc2C1=O", "Category": "not satisfied"}
{"Compound": "COc1ccc2[nH]cc(C(=O)O)c2c1", "Category": "not satisfied"}
{"Compound": "Cc1cc(=Nc2ccc3c(c2)c(N)cc(C)[n+]3C)nc(N)n1C", "Category": "satisfied"}
{"Compound": "Oc1ccccc1/C=N\\N=C\\c1ccccc1O", "Category": "not satisfied"}
{"Compound": "CC(C)n1nnc2c3ccccc3c3ccccc3c21", "Category": "not satisfied"}
{"Compound": "CCCCN(CCCC)CC(=O)c1ccc2cc(Cl)c3ccccc3c2c1", "Category": "satisfied"}

Check this compound for growth inhibition at or above 90%: COc1cc(CNc2nc3ccccc3nc2-c2cccs2)cc(OC)c1OC
not satisfied

Please give the result for CC(C)(C)c1ccc(C(C)(C)C)cc1 too.
not satisfied

Entry to check: Clc1cc2ccccc2c2ccccc12
satisfied

Another: CCOC(=O)c1c[nH]cc1-c1cn(S(=O)(=O)c2ccccc2)cc1C
not satisfied

Now consider O=C(O)COc1c(Cl)c(Cl)c(Cl)c(Cl)c1Cl.[Cu+2] and answer again.
not satisfied

Try O=C(CC(c1cccnc1)C(C(=O)c1ccc(Cl)cc1)C(CC(=O)c1ccc(Cl)cc1)c1cccnc1)c1ccc(Cl)cc1 (configuration not stated) next.
not satisfied
